test_readout: melting point (°C)

a = CCCCCCCCCCCCCCNCc1ccc(OCc2cccc(F)c2)cc1
b = COC(=O)C(=CN(C)C)N(C)c1nccc(-c2ccccc2)n1
// query Compare a and b by numeric melting point and name the larger one. Provide the label of your selected option as the answer.
// result b

###

test_readout: melting point

Worked examples follow.
// query Item CN(C)CCCCCCCCCCOc1ccc(C(=O)c2ccccc2)cc1 has what recorded melting point?
// result 33 to 35 °C

// query Entry under review: COc1ccc(C=CC(=O)c2ccccc2O)cc1 . Reported melting point?
// result 81 to 83 °C

// query Find the recorded melting point belonging to O=C(O)c1cc(Cl)c(OCc2ccccc2)c(Cl)c1 and report it.
// result 211 to 213 °C

// query Please look up its melting point: Cc1ccc(NC(=O)CN2C(=O)C3(COc4cc5c(cc43)CCO5)c3ccccc32)c(C)c1 (stereo unspecified)
// result 277 to 279 °C

// query Item under review: CCN1c2ncccc2C(=O)Nc2c(C)cc(N3CCCCC3CCO)nc21 (stereo unspecified) . Reported melting point?
// result 234 to 237 °C

With those in mind, consider the next compound.
// query Requested field: melting point. Item: CNC(=O)Nc1ccc(CN2OCC(C)(C)C2=O)c(Cl)c1
// result 227 to 229 °C

The values you see were collected from a melting point compilation (Tetko et al.; mined from patent text by program, amines drawn as free bases though some values may be those of a salt).
